- TEST_SYSTEM: human recombinant vasopressin V2 receptor (Homo sapiens, UniProt P30518)
- Construct: gene AVPR2; full-length recombinant receptor in 1321N1 host cells (PerkinElmer)
- Sequence (P30518 whole entry): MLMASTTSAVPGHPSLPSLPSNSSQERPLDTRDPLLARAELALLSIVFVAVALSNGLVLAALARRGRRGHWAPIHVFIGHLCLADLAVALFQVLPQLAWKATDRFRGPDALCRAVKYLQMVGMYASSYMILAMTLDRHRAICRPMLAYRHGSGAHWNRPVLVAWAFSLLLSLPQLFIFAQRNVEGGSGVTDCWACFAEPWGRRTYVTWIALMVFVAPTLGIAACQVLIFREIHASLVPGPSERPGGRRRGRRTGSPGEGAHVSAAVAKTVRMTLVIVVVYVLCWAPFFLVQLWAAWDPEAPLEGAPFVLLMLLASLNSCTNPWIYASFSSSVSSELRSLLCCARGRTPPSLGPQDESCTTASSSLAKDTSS
- EXPERIMENTAL_DETAILS: radioligand binding assay
- Assay type: cell-based
- SETUP_CONDITIONS: read-out: Bingding Assy (IC50; nmol/mL) / V2
OBSERVED_PROPERTY: IC50 (nmol/mL)

Some solved cases for reference:
Cc1ccc(S(=O)(=O)Nc2ccc(C(=O)N3CCC(=C4c5ccc(Cl)cc5CCc5cccnc54)CC3)cc2)cc1    24
O=C(Nc1ccc(C(=O)N2CCC(=C3c4ccc(Cl)cc4CCc4cccnc43)CC2)cc1)c1cccc([N+](=O)[O-])c1    18
O=C(Nc1ccc(C(=O)N2CCC(=C3c4ccc(Cl)cc4CCc4cccnc43)CC2)cc1)c1ccccc1    19

I. O=C(Nc1ccc(C(=O)N2CCC(=C3c4ccc(Cl)cc4CCc4cccnc43)CC2)cc1)c1cccc(Cl)c1
II. O=C(Nc1ccc(C(=O)N2CCC(=C3c4ccc(Cl)cc4CCc4cccnc43)CC2)cc1)c1ccc([N+](=O)[O-])cc1
# input Quick one: lower IC50, I or II ? Answer by quoting the chosen item's label.
# output I

All figures here come from paper PMC6271649.
